System: HSkMC
method notes: cytotoxicity call (relative viability < 0.9)
experimental parameters: 10 µM
In all, about 39,000 compounds went through this assay and about 1,500 (3.8%) were called active. Only a selection was taken, and actives are over-represented in it overall.
Pick one and only one: 1 = active, -1 = inactive

The following compounds have reported results that may help.
record smiles	class label
C[C@H](CO)N1C[C@H](C)[C@@H](CN(C)Cc2ccc(Oc3ccccc3)cc2)Oc2ccc(NS(=O)(=O)c3ccccc3)cc2CC1=O	-1
C[C@H]1CN([C@@H](C)CO)C(=O)Cc2cc(NS(=O)(=O)c3cccs3)ccc2O[C@H]1CN(C)Cc1ccc(Oc2ccccc2)cc1	-1
C[C@@H]1CN([C@H](C)CO)C(=O)Cc2cc(NS(=O)(=O)c3ccccc3)ccc2O[C@H]1CN(C)Cc1ccc(Oc2ccccc2)cc1	-1

QUERY: Please let me know the test result on file for C[C@@H]1CN([C@@H](C)CO)C(=O)Cc2cc(NS(=O)(=O)c3cn(C)cn3)ccc2O[C@H]1CN(C)CC1CCCCC1 .
RESULT: -1

QUERY: Another compound to look at: C[C@H]1CN([C@@H](C)CO)C(=O)Cc2cc(NS(=O)(=O)c3ccccc3)ccc2O[C@H]1CN(C)Cc1ccc(Oc2ccccc2)cc1
RESULT: -1

QUERY: Another compound to look at: C[C@@H]1CN([C@H](C)CO)C(=O)Cc2cc(NS(=O)(=O)c3cccs3)ccc2O[C@@H]1CN(C)Cc1ccc(Oc2ccccc2)cc1
RESULT: 1

###

Test system: HSkMC
method notes: cytotoxicity call (relative viability < 0.9)
experimental parameters: 10 µM
Hit rate of the full screen: of about 39,000 compounds, about 1,500 (3.8%) were called active. The entries come from a sample that favours actives as a whole.
Pick one and only one: yes = active, no = inactive

record smiles	class label
C[C@H]1CN([C@@H](C)CO)C(=O)c2cccc(NC(=O)Nc3ccc(C(F)(F)F)cc3)c2O[C@@H]1CN(C)Cc1ccc(C(F)(F)F)cc1	no

QUERY: Please let me know the test result on file for CC(C)NC(=O)Nc1ccc2c(c1)CC(=O)N([C@H](C)CO)C[C@@H](C)[C@@H](CN(C)Cc1ccc(-c3ccccc3)cc1)O2 .
RESULT: no

QUERY: Another compound to look at: C[C@@H]1CN([C@@H](C)CO)C(=O)c2cccc(NC(=O)Nc3ccc(C(F)(F)F)cc3)c2O[C@@H]1CN(C)Cc1ccc(Cl)c(Cl)c1
RESULT: yes

QUERY: Another compound to look at: C[C@H]1CN([C@@H](C)CO)C(=O)c2c(c3ccccc3n2C)-c2ccccc2CO[C@@H]1CN(C)Cc1ccccc1C(F)(F)F
RESULT: yes

QUERY: Another compound to look at: O=S(=O)(N1CCOCC1)n1nnc2ccccc21
RESULT: no

###

Tested on: HSkMC
method notes: cytotoxicity call (relative viability < 0.9)
experimental parameters: 10 µM
Out of some 39,000 compounds screened, about 1,500 (3.8%) were called active. For the sample, actives were picked, then their nearest neighbours and some compounds at random.
Pick one and only one: True = active, False = inactive

compound	class label
COc1ccc([Si](C)(C)[C@@H]2[C@@H](CCO)O[C@]3(C(=O)N(Cc4ccc(N5C(=O)c6ccccc6Oc6ccccc65)cc4)c4ccccc43)[C@H]2C)cc1	False
C[C@H]1CCCCO[C@H](CN(C)C(=O)Nc2ccc(F)cc2)[C@@H](C)CN([C@@H](C)CO)C(=O)c2cc(NC(=O)CCC(F)(F)F)ccc2O1	False
C[C@@H]1CC=CC[C@@H](c2cccc(Cl)c2)NC(=O)[C@@H](Cc2ccccc2)N(C)C(=O)c2ccccc2O1	False

QUERY: Please let me know the test result on file for COc1cccc(-c2cn(CC[C@H]3CC[C@H](NC(=O)CN(C)C)[C@H](CO)O3)nn2)c1 .
RESULT: False

QUERY: Another compound to look at: C[C@@H]1CCCCO[C@@H](CN(C)C(=O)CCC(F)(F)F)[C@@H](C)CN([C@@H](C)CO)C(=O)c2cc(NC(=O)Nc3ccccc3)ccc2O1
RESULT: False

QUERY: Another compound to look at: CCCN(C)C[C@H]1OCCCC[C@H](C)Oc2ccc(NC(=O)NC3CCCCC3)cc2C(=O)N([C@@H](C)CO)C[C@H]1C
RESULT: False

QUERY: Another compound to look at: CC(C)NC(=O)N(C)C[C@@H]1OCCCC[C@@H](C)Oc2ccc(NS(=O)(=O)c3cn(C)cn3)cc2C(=O)N([C@@H](C)CO)C[C@H]1C
RESULT: False

QUERY: Another compound to look at: COc1ccccc1CNC(=O)C[C@H]1C[C@@H]2c3cc(NC(=O)c4cccnc4)ccc3O[C@@H]2[C@H](CO)O1
RESULT: False

QUERY: Another compound to look at: C[C@@H]1CCCCO[C@H](CN(C)C(=O)Nc2cccc3ccccc23)[C@H](C)CN([C@H](C)CO)C(=O)c2cc(NS(=O)(=O)c3cccs3)ccc2O1
RESULT: True

QUERY: Another compound to look at: Cc1ccc(S(=O)(=O)N(C)C[C@@H]2OCCCC[C@@H](C)Oc3ccc(NS(C)(=O)=O)cc3C(=O)N([C@@H](C)CO)C[C@H]2C)cc1
RESULT: False

QUERY: Another compound to look at: C[C@H]1CCCCO[C@@H](CN(C)C(=O)Nc2cccc3ccccc23)[C@@H](C)CN([C@@H](C)CO)C(=O)c2cc(NS(=O)(=O)c3cccs3)ccc2O1
RESULT: False

QUERY: Another compound to look at: CC1(C)CCC2(C(=O)O)CCC3(C)C(=CCC4C5(C)CCC(O)C(C)(C)C5CCC43C)C2C1 (configuration not stated)
RESULT: False

###

System: HSkMC
method notes: cytotoxicity call (relative viability < 0.9)
experimental parameters: 10 µM
In all, about 39,000 compounds went through this assay and about 1,500 (3.8%) were called active. The full list was thinned out, with actives kept by preference.
Pick one and only one: T = active, F = inactive

The following compounds have reported results that may help.
record smiles	class label
O=C(C[C@H]1C[C@@H]2c3cc(NC(=O)NC4CCCC4)ccc3O[C@@H]2[C@@H](CO)O1)NCc1ccc(-c2ccccc2)cc1	T
COc1cc2c(N3CCN(C(=O)Nc4ccc(OC(C)C)cc4)CC3)ncnc2cc1OCCCN1CCCCC1	F
CN1C(=O)COc2cc(N)ccc21	F

QUERY: Please let me know the test result on file for C[C@@H]1CN([C@H](C)CO)C(=O)Cc2cc(NS(=O)(=O)c3ccccc3)ccc2O[C@@H]1CN(C)Cc1ccc(Cl)c(Cl)c1 .
RESULT: T

QUERY: Another compound to look at: O=C(C[C@@H]1C[C@@H]2c3cc(NC(=O)NC4CCCC4)ccc3O[C@@H]2[C@@H](CO)O1)NCc1ccc(-c2ccccc2)cc1
RESULT: F

QUERY: Another compound to look at: CCN1CCN(c2ccc(Nc3cc(N(C)C(=O)Nc4c(Cl)c(OC)cc(OC)c4Cl)ncn3)cc2)CC1
RESULT: T

QUERY: Another compound to look at: O=C(C[C@H]1C[C@@H]2c3cc(NC(=O)NC4CCCC4)ccc3O[C@@H]2[C@H](CO)O1)NCc1ccc(-c2ccccc2)cc1
RESULT: F

QUERY: Another compound to look at: C[C@H](CO)N1C[C@H](C)[C@@H](CN(C)Cc2ccc(Cl)c(Cl)c2)Oc2ccc(NS(=O)(=O)c3ccccc3)cc2CC1=O
RESULT: F

###

Tested on: HSkMC (human skeletal muscle cells)
method notes: cytotoxicity call (relative viability < 0.9)
experimental parameters: 10 µM
About 1,500 (3.8%) of roughly 39,000 compounds were called active. This excerpt belongs to a sample that is enriched for actives.
Pick one and only one: Y for active, N for inactive

record smiles	tested on	class label
Cc1noc(C)c1S(=O)(=O)Nc1ccc2c(c1)C(=O)N([C@H](C)CO)C[C@@H](C)[C@@H](CN(C)Cc1ccc(Oc3ccccc3)cc1)O2	HSkMC	N
C[C@@H]1CCCCO[C@@H](CN(C)Cc2ccccc2)[C@@H](C)CN([C@H](C)CO)C(=O)c2cc(NC(=O)Nc3ccc(C(F)(F)F)cc3)ccc2O1	HSkMC	N
COc1ccc(C[C@@H](N)C(=O)N[C@@H]2[C@@H](O)[C@@H](n3cnc4c(N(C)C)ncnc43)O[C@@H]2CO)cc1	HSkMC	Y
C[C@@H]1CN([C@@H](C)CO)C(=O)c2cc(-c3cccc(C#N)c3)cnc2O[C@@H]1CN(C)C(=O)C1CCOCC1	HSkMC	N
C[C@H]1CN([C@@H](C)CO)C(=O)c2cccc(NC(=O)C3CCOCC3)c2O[C@H]1CN(C)Cc1ccccc1	HSkMC	N
C[C@H](CO)N1C[C@H](C)[C@@H](CN(C)CC2CCCCC2)OCCCC[C@H](C)Oc2ccc(NC(=O)Nc3ccc4c(c3)OCO4)cc2C1=O	HSkMC	N

Now, please, on to the next compound.
QUERY: Please let me know the test result on file for CN(C)C(=O)C[C@H]1C=C[C@@H](NC(=O)C2CCOCC2)[C@H](CO)O1 .
RESULT: N
